test: Permeability of the compound at 200 umol/L after 5 hrs by PAMPA; format: ADME; settings: read-out: permeability
parameter: Papp at 5 h, 200 µM (×10⁻⁶ cm/s)
The response must be a number in ×10⁻⁶ cm/s with no trailing unit.

Please look up its Papp at 5 h, 200 µM: "CC[C@H](C)[C@@H]([C@@H](CC(=O)N1CCC[C@H]1[C@H](OC)[C@@H](C)C(=O)N[C@@H](Cc1ccccc1)c1nc(C(=O)N(C)CCS)cs1)OC)N(C)C(=O)[C@@H](NC(=O)[C@H](C(C)C)N(C)C)C(C)C"
1.1

###

assay: Permeability of the compound at 200 umol/L after 5 hrs by PAMPA; assay type: ADME; conditions: read-out: permeability
// values below are reported Papp at 5 h, 200 µM
The response must be a number in nm/s with no trailing unit.

These solved cases illustrate the format of a correct answer.
CCNC(=O)c1csc([C@H](Cc2ccccc2)NC(=O)[C@H](C)[C@@H](OC)[C@@H]2CCCN2C(=O)C[C@@H](OC)[C@H]([C@@H](C)CC)N(C)C(=O)[C@@H](NC(=O)[C@H](C(C)C)N(C)C)C(C)C)n1 : 17
CC[C@H](C)[C@@H]([C@@H](CC(=O)N1CCC[C@H]1[C@H](OC)[C@@H](C)C(=O)N[C@@H](Cc1ccccc1)c1nc(C(=O)NCCc2ccc(O)cc2)cs1)OC)N(C)C(=O)[C@@H](NC(=O)[C@H](C(C)C)N(C)C)C(C)C : 3.6

Note: attention shifts to another entry.
Please look up its Papp at 5 h, 200 µM: "CC[C@H](C)[C@@H]([C@@H](CC(=O)N1CCC[C@H]1[C@H](OC)[C@@H](C)C(=O)N[C@@H](Cc1ccccc1)c1nc(C(=O)OCCO)cs1)OC)N(C)C(=O)[C@@H](NC(=O)[C@H](C(C)C)N(C)C)C(C)C"
0.4
